- ASSAY_SYSTEM: hemagglutinin (HA) of influenza A/Solomon Islands/3/06 H1N1 (Influenza A virus A/Solomon …)
- EXPERIMENT_NOTES: ELISA, inactivated whole virions coated; transfection supernatant set 3
RESULT_TYPE: OD450 (OD450)
Respond numerically; units are OD450 and should not be typed.

INPUT: OD450 for TCN-533 (5256_A17) (antibody, V domains shown) VH: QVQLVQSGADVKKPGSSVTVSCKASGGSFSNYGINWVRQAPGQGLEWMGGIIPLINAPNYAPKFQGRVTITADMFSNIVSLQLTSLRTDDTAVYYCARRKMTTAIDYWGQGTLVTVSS VL: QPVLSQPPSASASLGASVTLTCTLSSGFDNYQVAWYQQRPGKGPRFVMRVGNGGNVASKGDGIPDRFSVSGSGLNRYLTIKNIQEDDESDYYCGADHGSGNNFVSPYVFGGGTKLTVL ?
OUTPUT: 3.61
